# System: Yap1 mRNA
# method: Dose-dependent inhibition of human Yap1 in A-431 cells (Example 7, 10,000 cells per well, RTS36584)
# Type: cell-based
# experimental-conditions: Table 58, 15.6 nM, free uptake, A-431 cells 10,000 cells per well, 48 hours
Strand notation (5' to 3'): a small letter for the sugar, then the base; units joined by * are phosphorothioate-linked, units joined directly phosphodiester-linked; [ ] holds rarer units or linkages, { } end groups; capitals alone tell only the bases. k = constrained ethyl (cEt); [5mC] = 5-methylcytosine; d = 2'-deoxy (DNA)
Class T: Yap1 mRNA, % UTC at least 90 % UTC. Class F: Yap1 mRNA, % UTC below 90 % UTC.

958537 (k[5mC]*kA*kG*dG*dG*dT*d[5mC]*dA*dA*dT*dT*dT*dT*k[5mC]*kA*kG; antisense) [compound 958537]    T
958757 (kG*kT*kG*dA*dT*d[5mC]*dT*dG*d[5mC]*dA*d[5mC]*dA*dT*kT*kG*kT; antisense) [compound 958757]    T
958622 (kG*kA*kT*dA*dT*dT*d[5mC]*d[5mC]*dG*d[5mC]*dA*dT*dT*kG*k[5mC]*k[5mC]; antisense) [compound 958622]    F

Problem: Decide: is the reported value of Yap1 mRNA, % UTC for 958497 (kA*kT*kA*dT*dG*dG*dA*dA*dA*dT*dT*dG*dT*k[5mC]*kT*k[5mC]) [compound 958497] equal to or greater than 90 % UTC?
Result: F

* * *

Record form. Attribute: YAP1 (% UTC). Fill in for each entry.
# Tested on: Yap1 mRNA
# method: Antisense inhibition of human Yap1 in SNU-449 cells by modified oligonucleotides, single dose (Example 5, RTS36584)
# Type: cell-based
# experimental-conditions: Table 43 experiment; SNU-449 cells, 10,000 cells per well, free uptake, 2,000 nM, approximately 48 hours; RTS36584; Yap1 mRNA normalized to RIBOGREEN, relative to untreated control cells
Strand notation (5' to 3'): a small letter for the sugar, then the base; units joined by * are phosphorothioate-linked, units joined directly phosphodiester-linked; [ ] holds rarer units or linkages, { } end groups; capitals alone tell only the bases. e = 2'-O-(2-methoxyethyl) (MOE); k = constrained ethyl (cEt); [5mC] = 5-methylcytosine; d = 2'-deoxy (DNA)
Give bare numbers, in % UTC.

Answered examples (3):
1198274 (kA*kA*d[5mC]*dT*dT*dT*dA*dA*dA*dG*dT*eG*eT*eA*kT*kG; antisense) [Compound 1198274]    69
1198280 (kA*k[5mC]*dT*dA*dA*dG*dT*dA*dA*dG*dG*eT*eT*eT*k[5mC]*k[5mC]; antisense) [Compound 1198280]    40
1198262 (kT*kG*dT*dA*dA*dT*dA*dT*dT*dG*d[5mC]*eA*eA*eT*k[5mC]*kT; antisense) [Compound 1198262]    114

# batch: return YAP1 (% UTC) for each of the 4 substances below
1. 1198485 (antisense kA*kG*d[5mC]*dA*d[5mC]*dT*dT*dT*dT*dA*d[5mC]*eA*kT*eT*kA*eG) [Compound 1198485]
2. 1198244 (kA*kG*dA*dT*dT*dT*dA*dG*dG*dA*dT*eG*e[5mC]*eA*kT*kG; antisense) [Compound 1198244]
3. 1198465 (antisense kA*kG*dT*dA*dT*dG*dT*dG*dG*d[5mC]*dA*eA*kT*eA*kA*eT) [Compound 1198465]
4. 1198263 (kA*kT*dG*dT*dA*dA*dT*dA*dT*dT*dG*e[5mC]*eA*eA*kT*k[5mC]; antisense) [Compound 1198263]

Result:
1: 64; 2: 24; 3: 68; 4: 114

I need YAP1 (% UTC) for every entry listed below, if you could help.
1. 1198458 (kA*kA*dT*dT*dG*dT*d[5mC]*dT*d[5mC]*dA*dT*eG*k[5mC]*e[5mC]*kT*eT) [Compound 1198458]
2. 1198466 (antisense kA*kG*dA*dG*dT*dA*dT*dG*dT*dG*dG*e[5mC]*kA*eA*kT*eA) [Compound 1198466]
3. 1198273 (k[5mC]*kT*dT*dT*dA*dA*dA*dG*dT*dG*dT*eA*eT*eG*kT*k[5mC]; antisense) [Compound 1198273]
4. 1198252 (k[5mC]*kT*d[5mC]*dT*dT*dA*dT*dA*dT*dG*dG*eT*eT*eT*kT*kG; antisense) [Compound 1198252]
5. 1198484 (antisense kG*k[5mC]*dA*d[5mC]*dT*dT*dT*dT*dA*d[5mC]*dA*eT*kT*eA*kG*eG) [Compound 1198484]
6. 119825 4 (kA*kA*d[5mC]*dT*d[5mC]*dT*dT*dA*dT*dA*dT*eG*eG*eT*kT*kT; antisense)

Result:
30
12
52
26
18
95
